- Tested on: L1210 leukemia ip in BDF1 mice, survival T/C
- Procedure Details: NCI In Vivo Anticancer Drug Screen. Data for tumor model L1210 Leukemia (intraperitoneal) in B6D2F1 (BDF1) mice
- Conditions: endpoint: mean survival time; dose: 200.0 mg/kg/injection; schedule: Q01DX001 (ip); vehicle: saline; higher = longer survival
Inconclusive results and toxic doses are left out. Square brackets hold non-standard residues; d marks the D form. Peptide text beside a SMILES is read from it. * marks the point of attachment. ξ: configuration not given here. Cbz = O=C(OCc1ccccc1)*; ξL = CC(C)CC(N)C(=O)O
# T/C per record follows

Some solved entries appear below for comparison.
O=N[O-].O=N[O-].O=N[O-].[Co+3].[NH2-].[NH2-].[NH2-] ... 90 % of control
COC(=O)CNC(=O)C(CC(C)C)NC(=O)OCc1ccccc1 (centres undefined) (Cbz-[ξL]-Gly-OMe) ... 94 % of control
CCCCCCCC1CCC(=O)O1 (centres undefined) ... 98 % of control

Here's the next entry for you.
// T/C lookup, key: CCCN(CCC)CP(=S)(CN(CCC)CCC)CN(CCC)CCC 90 % of control
